Here, each record is paired with measured MIC E. coli ATCC 25922 data.
- Tested on: E. coli ATCC 25922
- assay.text: microbe, parasite or virus in culture
- reported.conditions: ATCC 25922, 18 h
Where a SMILES comes first, the peptide text is derived from it. Bridges are numbered along the chain shown (N, C = ends). [ ]: non-standard residue; d: D form. The star is where a group is joined. Isonicotinoyl(2-Ph) = O=C(c1ccnc(-c2ccccc2)c1)*; dOrn = NCCC[C@@H](N)C(=O)O; dDab = NCC[C@@H](N)C(=O)O; hSer = N[C@@H](CCO)C(=O)O; Octanoyl = CCCCCCCC(=O)*; Orn = NCCC[C@H](N)C(=O)O; Dab = NCC[C@H](N)C(=O)O; Dap = NC[C@H](N)C(=O)O
attribute.measured: MIC E. coli ATCC 25922 (µg/mL)

{"columns": ["compound", "prefix.operator", "number"],
 "data": [
  ["CCCCCCCC(=O)N[C@H](C(=O)N[C@H](Cc1c[nH]cn1)C(=O)N[C@H]1CCNC(=O)[C@H]([C@@H](C)O)NC(=O)[C@H](CCN)NC(=O)[C@H](CCN)NC(=O)[C@H](CC(C)C)NC(=O)[C@@H](Cc2ccccc2)NC(=O)[C@H](CCN)NC1=O)[C@@H](C)O [Compound 48] (Octanoyl-T[dH][Dab][Dab][dF]L[Dab][Dab]T; lactam 3-C)", "=", 2],
  ["CC(C)C[C@@H]1NC(=O)[C@@H](Cc2ccccc2)NC(=O)[C@H](CCN)NC(=O)[C@@H](NC(=O)[C@H](CCN)NC(=O)[C@@H](N)[C@@H](C)O)CCNC(=O)[C@H]([C@@H](C)O)NC(=O)[C@H](CCN)NC(=O)[C@H](CCN)NC1=O [PMBN, polymyxin B nonapeptide, reference compound] (H-T[Dab][Dab][Dab][dF]L[Dab][Dab]T; lactam 3-C (inferred))", ">", 32],
  ["CCCCCCCC(=O)N[C@H](C(=O)N[C@H](CCCN)C(=O)N[C@H]1CCNC(=O)[C@H]([C@@H](C)O)NC(=O)[C@H](CCN)NC(=O)[C@H](CCN)NC(=O)[C@H](CC(C)C)NC(=O)[C@@H](Cc2ccccc2)NC(=O)[C@H](CCN)NC1=O)[C@@H](C)O [Compound 41] (Octanoyl-T[dOrn][Dab][Dab][dF]L[Dab][Dab]T; lactam 3-C)", "=", 1],
  ["CCCCCCCC(=O)N[C@H](C(=O)N[C@@H](Cc1c[nH]c2ccccc12)C(=O)N[C@H]1CCNC(=O)[C@H]([C@@H](C)O)NC(=O)[C@H](CCN)NC(=O)[C@H](CCN)NC(=O)[C@H](CC(C)C)NC(=O)[C@@H](Cc2ccccc2)NC(=O)[C@H](CCN)NC1=O)[C@@H](C)O [Compound 46] (Octanoyl-TW[Dab][Dab][dF]L[Dab][Dab]T; lactam 3-C)", ">", 32],
  ["CCCCCCCC(=O)N[C@@H](CCO)C(=O)N[C@H](CCN)C(=O)N[C@H]1CCNC(=O)[C@H]([C@@H](C)O)NC(=O)[C@H](CCN)NC(=O)[C@H](CCN)NC(=O)[C@H](CC(C)C)NC(=O)[C@@H](Cc2ccccc2)NC(=O)[C@H](CCN)NC1=O [Compound 31] (Octanoyl-[hSer][dDab][Dab][Dab][dF]L[Dab][Dab]T; lactam 3-C)", "=", 16],
  ["CCCCCCCC(=O)N[C@H](C(=O)N[C@@H](CCO)C(=O)N[C@H]1CCNC(=O)[C@H]([C@@H](C)O)NC(=O)[C@H](CCN)NC(=O)[C@H](CCN)NC(=O)[C@H](CC(C)C)NC(=O)[C@@H](Cc2ccccc2)NC(=O)[C@H](CCN)NC1=O)[C@@H](C)O [Compound 37] (Octanoyl-T[hSer][Dab][Dab][dF]L[Dab][Dab]T; lactam 3-C)", "=", 16],
  ["CC(C)C[C@@H]1NC(=O)[C@@H](Cc2ccccc2)NC(=O)[C@H](CCN)NC(=O)[C@@H](NC(=O)[C@H](CCN)NC(=O)[C@@H](NC(=O)c2ccnc(-c3ccccc3)c2)[C@@H](C)O)CCNC(=O)[C@H]([C@@H](C)O)NC(=O)[C@H](CCN)NC(=O)[C@H](CCN)NC1=O [Compound 10] ({Isonicotinoyl(2-Ph)}-T[Dab][Dab][Dab][dF]L[Dab][Dab]T; lactam 3-C)", "=", 4],
  ["CCCCCCCC(=O)N[C@@H](CCC(=O)O)C(=O)N[C@H](CCN)C(=O)N[C@H]1CCNC(=O)[C@H]([C@@H](C)O)NC(=O)[C@H](CCN)NC(=O)[C@H](CCN)NC(=O)[C@H](CC(C)C)NC(=O)[C@@H](Cc2ccccc2)NC(=O)[C@H](CCN)NC1=O [Compound 32] (Octanoyl-E[dDab][Dab][Dab][dF]L[Dab][Dab]T; lactam 3-C)", ">", 32],
  ["CCCCCCCC(=O)N[C@H](C(=O)N[C@H](CCN)C(=O)N[C@H]1CCNC(=O)[C@H]([C@@H](C)O)NC(=O)[C@H](CCN)NC(=O)[C@H](CCN)NC(=O)[C@H](CC(C)C)NC(=O)[C@@H](Cc2ccccc2)NC(=O)[C@H](CCN)NC1=O)[C@@H](C)O [Compound 21] (Octanoyl-T[dDab][Dab][Dab][dF]L[Dab][Dab]T; lactam 3-C)", "=", 0.5],
  ["CCCCCCCC(=O)N[C@H](C(=O)N[C@@H](CN)C(=O)N[C@H]1CCNC(=O)[C@H]([C@@H](C)O)NC(=O)[C@H](CCN)NC(=O)[C@H](CCN)NC(=O)[C@H](CC(C)C)NC(=O)[C@@H](Cc2ccccc2)NC(=O)[C@H](CCN)NC1=O)[C@@H](C)O [Compound 39] (Octanoyl-T[Dap][Dab][Dab][dF]L[Dab][Dab]T; lactam 3-C)", "=", 1],
  ["CCCCCCCC(=O)N[C@H](C(=O)N[C@@H](CCN)C(=O)N[C@H]1CCCNC(=O)[C@H]([C@@H](C)O)NC(=O)[C@H](CCN)NC(=O)[C@H](CCN)NC(=O)[C@H](CC(C)C)NC(=O)[C@@H](Cc2ccccc2)NC(=O)[C@H](CCN)NC1=O)[C@@H](C)O [Compound 17] (Octanoyl-T[Dab][Orn][Dab][dF]L[Dab][Dab]T; lactam 3-C)", "=", 2]
]}

Value source: paper PMC6384738
